Molecular target: T1, DR4 (TRAIL-R1) on cancer cells (human, UniProt O00220 24-468)
T1 sequence: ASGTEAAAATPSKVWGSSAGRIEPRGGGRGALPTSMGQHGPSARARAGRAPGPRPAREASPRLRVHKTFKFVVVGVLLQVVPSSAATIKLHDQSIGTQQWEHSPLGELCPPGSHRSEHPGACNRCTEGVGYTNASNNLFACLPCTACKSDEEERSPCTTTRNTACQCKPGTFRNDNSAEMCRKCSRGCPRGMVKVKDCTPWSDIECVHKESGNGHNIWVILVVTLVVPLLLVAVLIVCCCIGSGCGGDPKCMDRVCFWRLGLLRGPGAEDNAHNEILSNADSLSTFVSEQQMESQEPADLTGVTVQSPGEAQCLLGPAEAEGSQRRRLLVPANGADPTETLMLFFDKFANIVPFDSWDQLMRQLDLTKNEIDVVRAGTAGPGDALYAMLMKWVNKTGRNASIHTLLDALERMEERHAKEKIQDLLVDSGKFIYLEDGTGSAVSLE
Assay: cell-based or functional assay
Give measured H2122 % killing (% of TRAIL activity) for each item. Keep answers brief.

Find the recorded H2122 % killing (% of TRAIL activity) belonging to 71p88P1A3 (designed binder) EPPTQKPKKIVNAKKDVVNTKMFEELKSRLDTLAQEVALLKEQQALQTVCLKGTKVHMKCFLAFTQTKTFHEASEDCISRGGTLSTPQTGSENDALYEYLRQSVGNEAEIWLGLNGYLAGTGWVDMTGARIAYKNWETEITAQPDGGRVLAWENCAVLSGAANGKWFDKRCRDQLPYICQFGIV and report it.
-3%

Find the recorded H2122 % killing (% of TRAIL activity) belonging to 71p88P1G1 (designed binder) EPPTQKPKKIVNAKKDVVNTKMFEELKSRLDTLAQEVALLKEQQALQTVCLKGTKVHMKCFLAFTQTKTFHEASEDCISRGGTLSTPQTGSENDALYEYLRQSVGNEAEIWLGLNGWMEGVGWVDMTGARIAYKNWETEITAQPDGGPPWRWENCAVLSGAANGKWFDKRCRDQLPYICQFGIV and report it.
0%

Find the recorded H2122 % killing (% of TRAIL activity) belonging to 71p88P1B3 (designed binder) EPPTQKPKKIVNAKKDVVNTKMFEELKSRLDTLAQEVALLKEQQALQTVCLKGTKVHMKCFLAFTQTKTFHEASEDCISRGGTLSTPQTGSENDALYEYLRQSVGNEAEIWLGLNGWLEGSGWVDMTGARIAYKNWETEITAQPDGGVQWRWENCAVLSGAANGKWFDKRCRDQLPYICQFGIV and report it.
0%

Find the recorded H2122 % killing (% of TRAIL activity) belonging to 71p88P1B12 (designed binder) EPPTQKPKKIVNAKKDVVNTKMFEELKSRLDTLAQEVALLKEQQALQTVCLKGTKVHMKCFLAFTQTKTFHEASEDCISRGGTLSTPQTGSENDALYEYLRQSVGNEAEIWLGLNGWIEGAGWVDMTGARIAYKNWETEITAQPDGGWRSRWENCAVLSGAANGKWFDKRCRDQLPYICQFGIV and report it.
-1%

Find the recorded H2122 % killing (% of TRAIL activity) belonging to 71p88P1G4 (designed binder) EPPTQKPKKIVNAKKDVVNTKMFEELKSRLDTLAQEVALLKEQQALQTVCLKGTKVHMKCFLAFTQTKTFHEASEDCISRGGTLSTPQTGSENDALYEYLRQSVGNEAEIWLGLNGYMTGVGWVDMTGARIAYKNWETEITAQPDGGRSWKWENCAVLSGAANGKWFDKRCRDQLPYICQFGIV and report it.
5%

Find the recorded H2122 % killing (% of TRAIL activity) belonging to 71p88P1G11 (designed binder) EPPTQKPKKIVNAKKDVVNTKMFEELKSRLDTLAQEVALLKEQQALQTVCLKGTKVHMKCFLAFTQTKTFHEASEDCISRGGTLSTPQTGSENDALYEYLRQSVGNEAEIWLGLNGWMAGVGWVDMTGARIAYKNWETEITAQPDGGPGLRWENCAVLSGAANGKWFDKRCRDQLPYICQFGIV and report it.
4%

Values compiled from patent US20120021995A1.
